System: Alopecurus myosuroides (ALOMY)
protocol: Post-emergence activity, glasshouse pot test (100=total damage to plant; 0=no damage to plant)
Assay type: in vivo
condition: 336 h, rate 500 g/ha, evaluated 14 or 15 days after spraying
So I've got a bunch of compounds here, and I need their pest or weed control at 500 g/ha values.
Write the number in % without appending the unit.

Q: Given Cc1cc(C)c(C2=C(O)CC(C3CCSCC3)CC2=O)c(C)c1 (stereo not drawn) , state its recorded pest or weed control at 500 g/ha.
Ans: 60

Q: Also check CCc1cc(C)cc(CC)c1C1=C(O)CC(C2CCCS(=O)(=O)C2)CC1=O (stereo not drawn)
Ans: 80

Q: Moving on to the next compound: CCc1cc(C)cc(CC)c1C1=C(O)CC(C2CCOC2)CC1=O (stereo not drawn)
Ans: 100

Q: Now give it for Cc1cc(C)c(C2=C(O)CC(C3CCS(=O)(=O)CC3)CC2=O)c(C)c1 (stereo not drawn) too.
Ans: 20

Q: Another compound to check: CCc1cc(C)cc(C)c1C1=C(O)CC(C2CCSCC2)CC1=O (stereo not drawn)
Ans: 80

Q: Repeat with Cc1cc(C)c(C2=C(O)CC(C3CCOC3)CC2=O)c(C)c1 (stereo not drawn)
Ans: 80

Q: Lookup CCc1cc(C)cc(CC)c1C1=C(O)CC(C2CCS(=O)(=O)CC2)CC1=O (stereo not drawn)
Ans: 80

Q: Can you check CCc1cc(C)cc(C)c1C1=C(O)CC(C2CCCSC2)CC1=O (stereo not drawn) next?
Ans: 100

Q: How about this compound: CCc1cc(C)cc(CC)c1C1=C(O)CC(C2CC[S+]([O-])CC2)CC1=O (stereo not drawn)
Ans: 90

Q: Next: CCc1cc(C)cc(CC)c1C1=C(O)CC(C2CCSCC2)CC1=O (stereo not drawn)
Ans: 90

Q: Similarly, Cc1ccc(-c2ccc(Cl)cc2)cc1C1=C(O)CC(C2CCOCC2)CC1=O (stereo not drawn) ?
Ans: 80

Q: Record: Cc1ccc(-c2ccc(Cl)cc2)cc1C1=C(O)CC(C2CCOC2)CC1=O (stereo not drawn)
Ans: 90

Q: Same read-out for CC(=O)OC1=C(c2c(C)cc(C)cc2C)C(=O)CC(C2CCOC2)C1 (stereo not drawn) [Compound P1] ?
Ans: 80

Q: Follow-up item: CCc1ccc(-c2ccc(Cl)cc2)cc1C1=C(O)CC(C2CCOCC2)CC1=O (stereo not drawn)
Ans: 80

Q: Further, for CCc1ccc(-c2ccc(Cl)cc2)cc1C1=C(O)CC(C2CCOC2)CC1=O (stereo not drawn) ?
Ans: 100

Q: Also Cc1cc(C)c(C2=C(O)CC(C3CCOCC3)CC2=O)c(C)c1 (stereo not drawn) ?
Ans: 100

Q: Okay, and CCc1cc(C)cc(CC)c1C1=C(O)CC(C2CCOCC2)CC1=O (stereo not drawn) ?
Ans: 90

Q: Now try Cc1cc(C)c(C2=C(O)CC(C3CCCSC3)CC2=O)c(C)c1 (stereo not drawn) .
Ans: 70

Q: Next entry: CCc1cc(C)cc(C)c1C1=C(O)CC(C2CCOCC2)CC1=O (stereo not drawn)
Ans: 90

Q: Would you mind doing CCc1cc(C)cc(CC)c1C1=C(O)CC(C2CCCSC2)CC1=O (stereo not drawn) as well?
Ans: 100

Q: Param item: CCc1cc(C)cc(C)c1C1=C(O)CC(C2CCOC2)CC1=O (stereo not drawn)
Ans: 90

====

Tested on: Digitaria sanguinalis (DIGSA)
protocol: Pre-emergence activity, glasshouse pot test (100=total damage to plant; 0=no damage to plant)
Format: in vivo
condition: rate 500 g/ha, evaluated 19, 20 or 21 days after spraying
observed-property: pest or weed control at 500 g/ha (%)
Only the number, expressed in %, is required.

Q: Need pest or weed control at 500 g/ha, item Cc1cc(C)c(C2=C(O)CC(C3CCS(=O)(=O)CC3)CC2=O)c(C)c1 (stereo not drawn) [Compound T17]
Ans: 60

Q: // query: Cc1cc(C)c(C2=C(O)CC(C3CCCSC3)CC2=O)c(C)c1 (stereo not drawn) [Compound T14]
Ans: 90

Q: Please do the same for Cc1ccc(-c2ccc(Cl)cc2)cc1C1=C(O)CC(C2CCOC2)CC1=O (stereo not drawn) [Compound T7] as well.
Ans: 100

Q: Please answer likewise for CCc1cc(C)cc(C)c1C1=C(O)CC(C2CCOC2)CC1=O (stereo not drawn) [Compound T11]
Ans: 100

Q: Another molecule: Cc1cc(C)c(C2=C(O)CC(C3CCSCC3)CC2=O)c(C)c1 (stereo not drawn) [Compound T15]
Ans: 70

Q: Likewise for CCc1cc(C)cc(CC)c1C1=C(O)CC(C2CCOC2)CC1=O (stereo not drawn) [Compound T4] ?
Ans: 90

Q: Input CCc1cc(C)cc(CC)c1C1=C(O)CC(C2CCS(=O)(=O)CC2)CC1=O (stereo not drawn) [Compound T20]
Ans: 100

Q: What do you get for CCc1cc(C)cc(C)c1C1=C(O)CC(C2CCOCC2)CC1=O (stereo not drawn) [Compound T12] ?
Ans: 100

Q: Record: CCc1ccc(-c2ccc(Cl)cc2)cc1C1=C(O)CC(C2CCOCC2)CC1=O (stereo not drawn) [Compound T8]
Ans: 100

Q: Next molecule: CCc1cc(C)cc(C)c1C1=C(O)CC(C2CCSCC2)CC1=O (stereo not drawn) [Compound T21]
Ans: 100

Q: CCc1cc(C)cc(C)c1C1=C(O)CC(C2CCCSC2)CC1=O (stereo not drawn) [Compound T16] ?
Ans: 100

Q: And then Cc1cc(C)c(C2=C(O)CC(C3CCOCC3)CC2=O)c(C)c1 (stereo not drawn) [Compound T3] , what is it?
Ans: 100

Q: Now consider CC(=O)OC1=C(c2c(C)cc(C)cc2C)C(=O)CC(C2CCOC2)C1 (stereo not drawn) [Compound P1] .
Ans: 60

Q: Another: CCc1ccc(-c2ccc(Cl)cc2)cc1C1=C(O)CC(C2CCOC2)CC1=O (stereo not drawn) [Compound T6]
Ans: 100

Q: How about Cc1cc(C)c(C2=C(O)CC(C3CCOC3)CC2=O)c(C)c1 (stereo not drawn) [Compound T10] ?
Ans: 80

Q: What about CCc1cc(C)cc(CC)c1C1=C(O)CC(C2CCCS(=O)(=O)C2)CC1=O (stereo not drawn) [Compound T19] ?
Ans: 100

Q: Same read-out for Cc1ccc(-c2ccc(Cl)cc2)cc1C1=C(O)CC(C2CCOCC2)CC1=O (stereo not drawn) [Compound T9] ?
Ans: 80

Q: Same question for CCc1cc(C)cc(CC)c1C1=C(O)CC(C2CCOCC2)CC1=O (stereo not drawn) [Compound T2] please.
Ans: 100

====

Tested on: Lolium perenne (LOLPE)
protocol: Pre-emergence activity, glasshouse pot test (100=total damage to plant; 0=no damage to plant)
Assay type: in vivo
condition: rate 500 g/ha, evaluated 19, 20 or 21 days after spraying
Assignment: determine reported pest or weed control at 500 g/ha for the given compounds.
Express it in %; write the number only.

Q: Item: CCc1cc(C)cc(C)c1C1=C(O)CC(C2CCSCC2)CC1=O (centres unmarked) Test system: Lolium perenne (LOLPE) Read-out: pest or weed control at 500 g/ha Value: ?
Ans: 40

Q: Moving on to the next compound: CC(=O)OC1=C(c2c(C)cc(C)cc2C)C(=O)CC(C2CCOC2)C1 (centres unmarked) [Compound P1]
Ans: 70

Q: Try the compound CCc1cc(C)cc(CC)c1C1=C(O)CC(C2CCSCC2)CC1=O (centres unmarked)
Ans: 100

Q: Same question for CCc1cc(C)cc(CC)c1C1=C(O)CC(C2CCS(=O)(=O)CC2)CC1=O (centres unmarked) please.
Ans: 100

Q: Try Cc1ccc(-c2ccc(Cl)cc2)cc1C1=C(O)CC(C2CCOC2)CC1=O (centres unmarked) next.
Ans: 100

Q: // query: Cc1cc(C)c(C2=C(O)CC(C3CCOCC3)CC2=O)c(C)c1 (centres unmarked)
Ans: 100

Q: Now the compound CCc1cc(C)cc(CC)c1C1=C(O)CC(C2CCOCC2)CC1=O (centres unmarked)
Ans: 100

Q: Another: CCc1cc(C)cc(CC)c1C1=C(OC(C)=O)CC(C2CCCS(=O)(=O)C2)CC1=O (centres unmarked) [Compound P2]
Ans: 80

Q: Try the compound CCc1cc(C)cc(C)c1C1=C(O)CC(C2CCCSC2)CC1=O (centres unmarked)
Ans: 100

Q: And what about the compound CCc1cc(C)cc(CC)c1C1=C(OC(=O)C(C)(C)C)CC(C2CCS(=O)(=O)CC2)CC1=O (centres unmarked) ?
Ans: 90

Q: Similarly, Cc1cc(C)c(C2=C(O)CC(C3CCS(=O)(=O)CC3)CC2=O)c(C)c1 (centres unmarked) ?
Ans: 0

Q: Another: CCc1cc(C)cc(CC)c1C1=C(O)CC(C2CCCS(=O)(=O)C2)CC1=O (centres unmarked)
Ans: 100

Q: What about this compound? Cc1ccc(-c2ccc(Cl)cc2)cc1C1=C(O)CC(C2CCOCC2)CC1=O (centres unmarked)
Ans: 100

Q: Then Cc1cc(C)c(C2=C(O)CC(C3CCCSC3)CC2=O)c(C)c1 (centres unmarked) ?
Ans: 70
